These entries and their values trace back to ChEMBL document CHEMBL1139953.

Tested on: Hepatocyte
assay info: Drug activation in rat hepatocytes by measuring intracellular NMPA levels at 100 uM after 1 hr
Format: cell-based
quantity name: Activity (nmol/g)

>  <chem smiles>
CCOP(=O)(Cc1cccc2ccccc12)OCC

>  <tested on>
Hepatocyte

>  <quantity name>
Activity

>  <measured>
0

$$$$
>  <chem smiles>
COc1ccc(COP(=O)(Cc2cccc3ccccc23)OCc2ccc(OC)c(F)c2)cc1F

>  <tested on>
Hepatocyte

>  <quantity name>
Activity

>  <measured>
125

$$$$
>  <chem smiles>
COc1ccc(COP(=O)(Cc2cccc3ccccc23)OCc2ccc(OC)c(C(C)=O)c2)cc1C(C)=O

>  <tested on>
Hepatocyte

>  <quantity name>
Activity

>  <measured>
0

$$$$
>  <chem smiles>
COc1ccc(COP(=O)(Cc2cccc3ccccc23)OCc2ccc(OC)c(Cl)c2)cc1Cl

>  <tested on>
Hepatocyte

>  <quantity name>
Activity

>  <measured>
130

$$$$
>  <chem smiles>
COc1c(Br)cc(COP(=O)(Cc2cccc3ccccc23)OCc2cc(Br)c(OC)c(Br)c2)cc1Br

>  <tested on>
Hepatocyte

>  <quantity name>
Activity

>  <measured>
0

$$$$

(P) COc1ccc(COP(=O)(Cc2cccc3ccccc23)OCc2ccc(OC)cc2)cc1
(Q) COc1ccc(COP(=O)(Cc2cccc3ccccc23)OCc2ccc(OC)c(C(F)(F)F)c2)cc1C(F)(F)F
Query :: For the two items P and Q , which reports the higher Activity value? // output: label of the selected item
Result :: P
(P: 91 nmol/g, Q: 46 nmol/g)

====

Tested on: Hepatocyte
assay info: Drug activation in rat hepatocytes by measuring intracellular NMPA levels at 100 uM after 1 hr
Assay type: cell-based
quantity name: Activity (nmol/g)

Field: example entries. Status: answers known.
>  <compound>
O=P(O)(O)Cc1cccc2ccccc12

>  <u>
nmol/g

>  <measured>
0

$$$$
>  <compound>
CCOc1ccc(COP(=O)(Cc2cccc3ccccc23)OCc2ccc(OCC)c(Cl)c2)cc1Cl

>  <u>
nmol/g

>  <measured>
54

$$$$

(P) COc1ccc(COP(=O)(Cc2cccc3ccccc23)OCc2ccc(OC)c([N+](=O)[O-])c2)cc1[N+](=O)[O-]
(Q) COc1c(Cl)cc(COP(=O)(Cc2cccc3ccccc23)OCc2cc(Cl)c(OC)c(Cl)c2)cc1Cl
Query :: Record comparison, field Activity: mark the lower of P and Q . // output: label of the selected item
Result :: Q
(Q: 0 nmol/g, P: 60 nmol/g)

(I) CC(C)C(=O)OCOP(=O)(Cc1cccc2ccccc12)OCOC(=O)C(C)C
(II) COc1cc(COP(=O)(Cc2cccc3ccccc23)OCc2cc(Br)c(OC)c(Br)c2)cc(OC)c1OC (configuration not stated)
(III) CCCOc1ccc(COP(=O)(Cc2cccc3ccccc23)OCc2ccc(OCCC)c(Cl)c2)cc1Cl
Query :: Put the compounds in ascending order of Activity. Please write the labels in the order that was asked for.
Result :: III, II, I
(III: 0 nmol/g, II: 26 nmol/g, I: 85 nmol/g)

====

assay info: Stability assessed as half life in rat plasma
Assay type: ADME, cell-free
quantity name: half-life

Field: example entries. Status: answers known.
>  <chem smiles>
COc1ccc(COP(=O)(Cc2cccc3ccccc23)OCc2ccc(OC)cc2)cc1

>  <measured>
0.15 h

$$$$
>  <chem smiles>
CC(C)C(=O)OCOP(=O)(Cc1cccc2ccccc12)OCOC(=O)C(C)C

>  <measured>
0.00833 h

$$$$
>  <chem smiles>
COc1ccc(COP(=O)(Cc2cccc3ccccc23)OCc2ccc(OC)c(Cl)c2)cc1Cl

>  <measured>
> 2 h

$$$$
>  <chem smiles>
COc1ccc(COP(=O)(Cc2cccc3ccccc23)OCc2ccc(OC)c(C#N)c2)cc1C#N

>  <measured>
> 2 h

$$$$
>  <chem smiles>
CCOc1ccc(COP(=O)(Cc2cccc3ccccc23)OCc2ccc(OCC)c(Cl)c2)cc1Cl

>  <measured>
> 2 h

$$$$

Query :: Return reported half-life. Input compound: COc1ccc(COP(=O)(Cc2cccc3ccccc23)OCc2ccc(OC)c(F)c2)cc1F
Result :: > 2 h

Query :: Return reported half-life. Input compound: COc1ccc(COP(=O)(Cc2cccc3ccccc23)OCc2ccc(OC)c([N+](=O)[O-])c2)cc1[N+](=O)[O-]
Result :: > 2 h

Query :: Return reported half-life. Input compound: COc1ccc(COP(=O)(Cc2cccc3ccccc23)OCc2ccc(OC)c(Br)c2)cc1Br
Result :: > 2 h

Query :: Return reported half-life. Input compound: COc1ccc(COP(=O)(Cc2cccc3ccccc23)OCc2ccc(OC)c(C(F)(F)F)c2)cc1C(F)(F)F
Result :: > 2 h

====

assay info: Stability assessed as half life in Krebs bicarbonate buffer at 37degC
Type: physicochemical
Some molecules, each annotated with its measured half-life.

Field: example entries. Status: answers known.
>  <chem smiles>
COc1ccc(COP(=O)(Cc2cccc3ccccc23)OCc2ccc(OC)c(Br)c2)cc1Br

>  <half-life>
> 2 h

$$$$
>  <chem smiles>
COc1ccc(COP(=O)(Cc2cccc3ccccc23)OCc2ccc(OC)cc2)cc1

>  <half-life>
0.15 h

$$$$
>  <chem smiles>
COc1ccc(COP(=O)(Cc2cccc3ccccc23)OCc2ccc(OC)c(Cl)c2)cc1Cl

>  <half-life>
> 2 h

$$$$

Next, consider the following molecule.
Query :: Return reported half-life. Input molecule: COc1ccc(COP(=O)(Cc2cccc3ccccc23)OCc2ccc(OC)c(F)c2)cc1F
Result :: > 2 h
